- System: PC-3
- Assay Protocol: NCI tumour cell line growth inhibition, 48 h
Activity calls are given as the source filed them. No stated cut-off is given here; in the data, active = GI50 up to about 1.1 µM and inactive = higher.
Outcome field: choose from active, inactive

Compound: Cc1c(-c2ccccn2)ccc2ccccc12
Class Label: inactive

Challenge: Look up the recorded call for CC(=O)OCC(OC(C)=O)C(OC(C)=O)C(OC(C)=O)C(/C=N\Nc1nc2ccccc2c(=O)[nH]1)OC(C)=O (configuration not stated) in this test.
Response given: inactive

Challenge: Look up the recorded call for O=C(Nc1ccc2oc(=O)c(C(=O)O)cc2c1)Oc1ccccc1 in this test.
Response given: inactive

Challenge: Look up the recorded call for CN(C)c1ccc(/C=C(\NC(=O)c2ccccc2)c2nc3ccccc3c(=O)o2)cc1 in this test.
Response given: inactive

Challenge: Look up the recorded call for CC(C)C[C@H](NC(=O)[C@H](Cc1cccc2ccccc12)NS(=O)(=O)c1cccc2cccnc12)B(O)O in this test.
Response given: active

Challenge: Look up the recorded call for CC(=O)Oc1cc(-c2oc3cc(OC(C)=O)c(C4OC(CO)C(O)C(O)C4O)c(OC(C)=O)c3c(=O)c2O)c(OC(C)=O)cc1O (configuration not stated) in this test.
Response given: inactive

Challenge: Look up the recorded call for CC(C)C[C@H]1[C@@H](OCc2ccccc2)COS(=O)N1[C@H](C)c1ccccc1 (some centres not stated) in this test.
Response given: inactive

----------
- System: SNB-75
- Assay Protocol: NCI tumour cell line growth inhibition, 48 h
Active and inactive are the calls of the source. Rule as the data show it: active = GI50 up to about 1.1 µM and inactive = higher.
Would you mind telling me the reported GI50 of each entry?

Field: example entries. Status: answers known.
Smiles Record: COc1c(-c2nc3ccc(N4CCN(C)CC4)cc3[nH]2)cc(OC)c2[nH]c(COC(C)=O)nc12
System Under Test: SNB-75
GI50: 9.4 µM (inactive)
--
Smiles Record: COC(=O)c1cccc2c3ccccc3c3ccccc3c12
System Under Test: SNB-75
GI50: 26.9 µM (inactive)
--
Smiles Record: CCCCOc1ccc2c(c1)CC[C@@H]1[C@@H]2CC[C@]2(C)C(=O)N(CCCC)C(=O)C[C@@H]12
System Under Test: SNB-75
GI50: > 100 µM (inactive)

GET /value?item= COc1cccc(C[C@H]2COC(=O)[C@]2(O)Cc2cccc(OC)c2)c1 &field=GI50 returns > 100 µM (inactive)

----------
- System: BT-549
- Assay Protocol: NCI tumour cell line growth inhibition, 48 h
Active and inactive are the calls of the source. Cut-off read from the data, not from the text of the source: active = GI50 up to about 1.1 µM and inactive = higher.
Measurement Type: GI50

Field: example entries. Status: answers known.
Compound: CCOP(=O)(OCC)C(C)(CC)NC (configuration not stated)
GI50: > 100 µM (inactive)

Compound: N#CC(NNC(=O)c1ccccc1O)c1c(O)ccc2ccccc12 (configuration not stated)
GI50: 7.11 µM (inactive)

Compound: CCOC(=O)c1ccc(Nc2nc3ccc(C(F)(F)F)cc3nc2C(=O)OCC)cc1
GI50: > 100 µM (inactive)

Would you mind listing GI50 for each of the following compounds?
1. CC(C)=CCC[C@@H](C)C1=C(O)C(=O)C(C)=C(N)C1=O
2. O=c1c2cc([N+](=O)[O-])cnc2sn1-c1ccc([N+](=O)[O-])cc1
3. CC(C)=CCC/C(C)=C/CC/C(C)=C/CC/C(C=O)=C/CC/C(C)=C\CC/C(C)=C/CC/C(C)=C/CC/C(C)=C/CC1=CC(=O)C=CC1=O
4. CC12CCC(=O)[C@@]1(C)CCCC2=O (some centres not stated)

Response given:
42.2 µM (inactive)
40 µM (inactive)
> 100 µM (inactive)
> 100 µM (inactive)

----------
- System: KM12
- Assay Protocol: NCI tumour cell line growth inhibition, 48 h
Activity calls are given as the source filed them. No stated cut-off is given here; in the data, active = GI50 up to about 1.1 µM and inactive = higher.
Measurement Type: GI50

Molecule: CCC1(CC)C(=O)NN(C(=O)c2ccc(Cl)cc2)C1=O
GI50: > 100 µM (inactive)
//
Molecule: COc1ccc(C2=Nn3c(nnc3-c3ccccc3)S/C2=C\c2ccc(-c3ccc([N+](=O)[O-])cc3)o2)cc1
GI50: 23.2 µM (inactive)
//
Molecule: C=C=C(C)[Si](C)(C)C
GI50: > 100 µM (inactive)
//
Molecule: O=C1CC(c2c(-c3ccccc3)[nH]c3ccccc23)C(=O)N1c1ccccc1 (stereo not drawn)
GI50: 44.4 µM (inactive)
//
Molecule: COc1cccc(C[C@H]2COC(=O)[C@]2(O)Cc2cccc(OC)c2)c1
GI50: 91.2 µM (inactive)

Would you mind listing GI50 for each of the following molecules?
1. OC(c1ccc(-c2ccccc2)cc1)C(F)(F)c1nc2ccccc2o1 (stereo not drawn)
2. CC12CCC(=O)[C@@]1(C)CCCC2=O (stereo partly drawn)
3. Cc1cc2c3c(c1)CCCN3CCC2

Response given:
1: 36.8 µM (inactive); 2: > 100 µM (inactive); 3: > 10 µM (inactive)

----------
- Test system: NCI-H460
- Assay Protocol: NCI tumour cell line growth inhibition, 48 h
The source made the active and inactive calls. Cut-off read from the data, not from the text of the source: active = GI50 up to about 1.1 µM and inactive = higher.
Measurement Type: GI50

Molecule: O=C1Nc2ccccc2/C1=C1/Nc2ccccc2/C1=N\OCCOC1OCC(O)C(O)C1O (stereo not drawn)
System Under Test: NCI-H460
GI50: > 100 µM (inactive)

Molecule: CCCCN(CCCC)C1(c2cc3ccccc3s2)CCCCC1.[O-][Cl+3]([O-])([O-])O
System Under Test: NCI-H460
GI50: 13.5 µM (inactive)

Now look at this entry.
GET /value?item= Cc1ccc(/N=N/N(C)C(C)C(O)Cc2ccccc2)cc1 (stereo not drawn) &field=GI50 returns 36.5 µM (inactive)

----------
- Test system: MDA-N
- Assay Protocol: NCI tumour cell line growth inhibition, 48 h
Activity calls are given as the source filed them. Cut-off read from the data, not from the text of the source: active = GI50 up to about 1.1 µM and inactive = higher.
Outcome field: choose from 1 for active, -1 for inactive

Challenge: Look up the recorded call for COc1ccc(C2=Nn3c(nnc3-c3ccccc3)S/C2=C\c2ccc(-c3ccc([N+](=O)[O-])cc3)o2)cc1 in this test.
Response given: -1

----------
- Tested on: MDA-MB-231
- Assay Protocol: NCI tumour cell line growth inhibition, 48 h
Activity calls are given as the source filed them. No stated cut-off is given here; in the data, active = GI50 up to about 1.1 µM and inactive = higher.
Would you mind telling me the reported GI50 of each entry?

Field: example entries. Status: answers known.
Compound: CCN(CC)/C(Sc1ccccc1)=C(\C(Cl)=C(Cl)Cl)[N+](=O)[O-]
Test Value: 24.2 µM (inactive)

Compound: CCOC(=O)C1(C#N)OC(=O)c2cnccc21 (stereo unspecified)
Test Value: > 100 µM (inactive)

Would you mind listing GI50 for each of the following compounds?
1. CC(=O)OCC1OC(n2c3c(cc(C#N)c2=S)CCC3)C(OC(C)=O)C(OC(C)=O)C1OC(C)=O (stereo unspecified)
2. C/C(=N\NC(=S)N1CCN(c2ccccn2)CC1)c1nccs1
3. CCOC(=O)/C(C#N)=C/c1ccc(CO)o1
4. CCOC(=O)c1cc2cc(CSc3ccccc3)ccc2oc1=O

Response given:
1. > 100 µM (inactive)
2. 0.022 µM (active)
3. > 100 µM (inactive)
4. 52.6 µM (inactive)

----------
- Test system: A498
- Assay Protocol: NCI tumour cell line growth inhibition, 48 h
The source made the active and inactive calls. No stated cut-off is given here; in the data, active = GI50 up to about 1.1 µM and inactive = higher.
Measurement Type: GI50

Field: example entries. Status: answers known.
Smiles Record: O=C(Nc1ccc(Cl)cc1Cl)C1C(=O)OC2(CCCCC2)OC1=O
GI50: 12.8 µM (inactive)

Smiles Record: Nc1nnc2oc3ccc4ccccc4c3cc1-2
GI50: 24.6 µM (inactive)

Smiles Record: COc1ccc(/C=N\NC(=O)Nc2cccc3ccccc23)cc1
GI50: 18.2 µM (inactive)

Smiles Record: CC(=O)c1cccc(Nc2nc3ccccc3c3occc23)c1
GI50: 9.98 µM (inactive)

Smiles Record: CC(=O)OCCOCn1c2ccccc2c2c3c(c4c5ccccc5n(COCCOC(C)=O)c4c21)C(=O)N(Cc1ccccc1)C3=O
GI50: > 100 µM (inactive)

Now look at this entry.
GET /value?item= Cc1ccc([N+](=O)[O-])cc1NC1=NCCO1 &field=GI50 returns > 100 µM (inactive)

----------
- Test system: SF-295
- Assay Protocol: NCI tumour cell line growth inhibition, 48 h
Calls of active or inactive are those of the source. No stated cut-off is given here; in the data, active = GI50 up to about 1.1 µM and inactive = higher.
Outcome field: choose from 1 = active, 0 = inactive

Field: example entries. Status: answers known.
Molecule: NC(=S)N/N=C(\Cc1nc2ccc(Cl)cc2nc1O)C(=O)Nc1ccc(Cl)cc1
Class Label: 0
//
Molecule: CN(Cc1nc2c(N)nc(N)nc2nc1N)c1ccc(C(=O)NC(CCC(=O)O)C(=O)O)cc1 (stereo not drawn)
Class Label: 1

Would you kindly look at the next entry?
Challenge: Look up the recorded call for C=CC(O)C#Cc1cnc(OC)nc1OC (stereo not drawn) in this test.
Response given: 0

----------
- Tested on: ACHN
- Assay Protocol: NCI tumour cell line growth inhibition, 48 h
Calls of active or inactive are those of the source. No stated cut-off is given here; in the data, active = GI50 up to about 1.1 µM and inactive = higher.
Outcome field: choose from y = active, n = inactive

Challenge: Look up the recorded call for CC(=O)Nc1ccc(C2=N/C(=C\c3ccc(Cl)cc3)C(=O)O2)cc1 in this test.
Response given: n

Challenge: Look up the recorded call for Cc1c/c(=N/NC(=O)c2ccncc2)n2nc(N)sc2n1 in this test.
Response given: n

Challenge: Look up the recorded call for CCOC(=O)c1nc2ccc(C(F)(F)F)cc2nc1Nc1cc(OC)c(OC)c(OC)c1 in this test.
Response given: n

Challenge: Look up the recorded call for O=C1Nc2ccccc2/C1=C1/Nc2ccccc2/C1=N\OCCOC1OCC(O)C(O)C1O (configuration not stated) in this test.
Response given: n

Challenge: Look up the recorded call for COC(C)(C)OCCN1CCN(CCN2C3=C(C=C(C(C)=O)C3)Sc3ccccc32)CC1 in this test.
Response given: n

Challenge: Look up the recorded call for C=CCC1=CC2(OC)C(=O)C(OC)(OC)C1C1C(OC)(OC)C(=O)C(OC)=CC12CC=C (configuration not stated) in this test.
Response given: n

Challenge: Look up the recorded call for Cc1nc2c(C)c3c([nH]c4ccc(Cl)cc43)c(C)c2c(O)c1C in this test.
Response given: n

Challenge: Look up the recorded call for COc1ccc2c(c1OC)C(C=C(c1ccccc1)c1ccccc1)CN(C)C2 (configuration not stated) in this test.
Response given: n
